tested.system: T1, BRCA2OB (human, UniProt P51587 2665-3197)
T1 sequence: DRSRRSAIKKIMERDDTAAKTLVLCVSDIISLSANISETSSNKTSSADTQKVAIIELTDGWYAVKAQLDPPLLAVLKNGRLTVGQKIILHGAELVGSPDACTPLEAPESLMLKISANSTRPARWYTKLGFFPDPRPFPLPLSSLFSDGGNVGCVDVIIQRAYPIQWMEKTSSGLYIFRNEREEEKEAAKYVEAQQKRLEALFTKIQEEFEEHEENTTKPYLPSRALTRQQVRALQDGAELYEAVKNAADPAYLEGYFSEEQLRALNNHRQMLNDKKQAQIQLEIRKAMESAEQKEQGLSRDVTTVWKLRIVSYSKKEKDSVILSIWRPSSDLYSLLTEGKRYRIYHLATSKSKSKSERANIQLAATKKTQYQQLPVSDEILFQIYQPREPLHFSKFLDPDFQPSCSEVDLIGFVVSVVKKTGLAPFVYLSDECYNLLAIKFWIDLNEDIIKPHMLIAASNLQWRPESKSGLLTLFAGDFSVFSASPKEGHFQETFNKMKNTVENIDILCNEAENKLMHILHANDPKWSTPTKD
assay.summary: EMSA; 100 mM KCl; rough estimate, max protein 1 uM; EMSA: 10 nM probe, 50 mM Tris-HCl pH 7.5, 100 mM KCl, 2 mM b-ME, 10% glycerol, probe pre-incubated 37 C, gel 4 C (RAD51: +1 mM MgCl2, 2 mM ATP); smFRET: 50 mM Tris-HCl pH 7.9, 100 mM KCl, 20 mM NaCl, 1 mM DTT, 0.1 mg/ml BSA, 9% glycerol, 37 C
particulars: protein: recombinant; tags: N-MBP, C-6xHis; label: 5' 32P; intramolecular G4
endpoint.name: Kd (nM)
Give the number; nM is assumed, so skip it.

Please give the measured Kd for this binder: GGTTGGGGTTGGGGTTGGGGTTGGGGTTGG (structured_DNA) [TelG5T2G4]
1400

Source of measurements: paper PMC9192595
